Please provide measured binding signal for the entries that follow.
Molecular target: GII.2 (SMV) VLP, major capsid protein (Human norovirus GII.2 (Snow Mountain virus))
Sequence: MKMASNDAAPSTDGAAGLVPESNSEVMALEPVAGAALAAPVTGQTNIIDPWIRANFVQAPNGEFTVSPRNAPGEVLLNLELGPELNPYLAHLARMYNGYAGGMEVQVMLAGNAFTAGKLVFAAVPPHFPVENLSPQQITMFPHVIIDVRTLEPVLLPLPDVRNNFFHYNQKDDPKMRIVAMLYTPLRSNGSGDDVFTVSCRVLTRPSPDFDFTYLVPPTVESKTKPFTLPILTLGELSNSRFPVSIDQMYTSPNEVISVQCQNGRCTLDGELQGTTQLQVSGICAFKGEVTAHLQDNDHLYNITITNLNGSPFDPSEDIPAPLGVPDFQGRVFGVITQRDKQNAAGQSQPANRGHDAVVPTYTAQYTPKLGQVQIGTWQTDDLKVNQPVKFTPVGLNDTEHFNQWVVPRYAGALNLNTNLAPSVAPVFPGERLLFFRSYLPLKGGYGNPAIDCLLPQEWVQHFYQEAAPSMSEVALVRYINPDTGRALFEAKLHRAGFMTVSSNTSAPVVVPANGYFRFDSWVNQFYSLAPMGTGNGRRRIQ
Assay: ELASA
Conditions: ELASA: VLPs 3 ug/ml coated, blocked with 5% skim milk in PBST plus unrelated DNA, 1 uM biotinylated aptamer (10 nM-2 uM for Kd), 1 h at RT, PBST washes
Note: a bare number is incomplete; add the unit.

Given the sequence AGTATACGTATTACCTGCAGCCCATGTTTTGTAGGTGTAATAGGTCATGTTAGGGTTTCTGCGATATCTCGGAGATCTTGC [SMV-21] , what is its reported binding signal?
18.1 T/N ratio

Query: binding signal; subject: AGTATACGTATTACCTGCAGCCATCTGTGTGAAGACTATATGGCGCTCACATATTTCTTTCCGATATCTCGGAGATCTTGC [SMV-25]
12.4 T/N ratio

Using the record for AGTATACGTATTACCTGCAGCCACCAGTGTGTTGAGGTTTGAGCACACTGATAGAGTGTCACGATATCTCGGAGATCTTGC [SMV-19] , report its binding signal.
12.9 T/N ratio

Fill in: binding signal of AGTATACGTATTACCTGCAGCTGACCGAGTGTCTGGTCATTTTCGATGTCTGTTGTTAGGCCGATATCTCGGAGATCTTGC [SMV-26] is ___
4.1 T/N ratio

Values were extracted from paper PMC4156411.
